- Tested on: U2OS
- Experiment Summary: Multiplex assay against U2OS
- Assay type: toxicity, cell-based
- Condition Notes: human, 12 h, 10 µM, compound concentration 10 uM, replicate 2
For each of the molecules below, state its Population Tubulin-Different-Phenotype (%).
Your answer is read as %, so omit the unit and give the number.

Look up Population Tubulin-Different-Phenotype (%) for this molecule: CN1CCN2c3ccccc3Cc3ccccc3C2C1.Cl (stereo not drawn) [MIANSERIN HYDROCHLORIDE]
0

Try the molecule COc1cc2nc(N3CCN(C(=O)COc4c(OC)cccc4C(C)C)CC3)nc(N)c2cc1OC.Cl.Cl
68

# iterate: O=c1ccc2ccc(OCCCCN3CCN(c4cccc5sccc45)CC3)cc2[nH]1 [BREXPIPRAZOLE]
95

Same question, CCn1c(-c2nc3cc(C(=O)N4CCCC(N)C4)ccc3n2C)cc2ccccc21.Cl (stereo not drawn) this time
48

Also, COc1cc2nc(N3CCN(C(=O)c4ccco4)CC3)nc(N)c2cc1OC.Cl [PRAZOSIN HYDROCHLORIDE] please.
7

CCCCC[C@H](O)/C=C/[C@H]1[C@H](O)CC(=O)[C@@H]1CCCCCCC(=O)O [ALPROSTADIL] ?
5

// repeat for CN(C)C/C=C/C(=O)Nc1ccc(C(=O)N2CCCC(Nc3ncc(Cl)c(-c4c[nH]c5ccccc45)n3)C2)cc1 (stereo not drawn) and report
37

Similarly, Cc1cc(O)c(-c2ccc([C@@H](C)CN(C)C)cc2)c2c1[nH]c(=O)c1sccc12 ?
45

* * *

- Tested on: Fibroblast
- Experiment Summary: Multiplex assay against human fibroblast
- Assay type: toxicity, cell-based
- Condition Notes: 12 h, 1 µM, compound concentration 1 uM, replicate 2
For each record, write down the corresponding Population Tubulin-Different-Phenotype (%).
Write the number in % without appending the unit.

Look up Population Tubulin-Different-Phenotype (%) for this compound: CCn1c(-c2nc3cc(C(=O)N4CCCC(N)C4)ccc3n2C)cc2ccccc21.Cl (stereo not given)
41

Another: Cc1c(Cc2ccc3ccccc3n2)c2cc(F)ccc2n1CC(=O)O [TIMAPIPRANT]
43

Check O=c1nc2[nH]c3ccccc3nc-2c(=O)[nH]1 [ALLOXAZINE] too.
33

Please answer likewise for Cc1sc2c(c1C)C(c1ccc(Cl)cc1)=N[C@H](CC(=O)OC(C)(C)C)c1nnc(C)n1-2
46

Item: Cc1cc(=O)n(C)c2cc(N3C(=O)CC[C@H](NS(=O)(=O)CC(C)C)[C@H]3c3ccc(Cl)cc3)ccc12
61

* * *

Assignment: determine reported Population Mitotic Cells (%) for the given molecules.
- Tested on: U2OS
- Experiment Summary: Multiplex assay against U2OS
- Type: toxicity, cell-based
- Condition Notes: human, 12 h, 1 µM, compound concentration 1 uM, replicate 2
Express the result in % but write the number alone.

Population Mitotic Cells (%) lookup needed for OCCCNc1cc(-c2ccnc(Nc3cccc(Cl)c3)n2)ccn1 , thanks.
20

Next entry: CN1C[C@H](C(=O)N[C@]2(C)O[C@@]3(O)[C@@H]4CCCN4C(=O)[C@H](Cc4ccccc4)N3C2=O)C[C@@H]2c3cccc4[nH]cc(c34)C[C@H]21.CS(=O)(=O)O [DIHYDROERGOTAMINE MESYLATE]
15

// next record Cc1sc2c(c1C)C(c1ccc(Cl)cc1)=N[C@H](CC(=O)OC(C)(C)C)c1nnc(C)n1-2
28

And then CCCCC[C@H](O)/C=C/[C@H]1[C@H](O)CC(=O)[C@@H]1CCCCCCC(=O)O , what is it?
22

* * *

Kindly state Population Fragmented Nuclei (%) for each of the entries shown.
- Tested on: HEK-293T
- Experiment Summary: Multiplex assay against HEK293T
- Assay type: toxicity, cell-based
- Condition Notes: human, 24 h, 10 µM, compound concentration 10 uM, replicate 2
Express your answer in %, writing the number without its unit.

Suppose we examine the compound COc1ccc2[nH]c(I)c(CCNC(C)=O)c2c1 ; what Population Fragmented Nuclei (%) value has been reported?
5

Do the same for O=c1ccc2ccc(OCCCCN3CCN(c4cccc5sccc45)CC3)cc2[nH]1 please
10

Now this one: Cc1cc(NC(=O)NCCN2CCC(O)(Cc3ccccc3)CC2)c2ccccc2n1
7

And for Cn1cc(C(=O)OCC2CCN(CCNS(C)(=O)=O)CC2)c2ccccc21 ?
10

Now consider COCCCN1CCC(NC(=O)c2cc(Cl)c(N)c3c2OCC3)CC1 [PRUCALOPRIDE] .
13

Please give the result for CC(C)C[C@H](CO)Nc1nc(S[C@@H](C)c2ccccc2)nc2nc(N)sc12 too.
9

Next: Nc1nc(CC(=O)Nc2ccc(CCNC[C@H](O)c3ccccc3)cc2)cs1
9

What do you have for Cc1c(Cc2ccc3ccccc3n2)c2cc(F)ccc2n1CC(=O)O ?
12

Next entry: Cl.Cl.OCCOCCN1CCN(C(c2ccccc2)c2ccc(Cl)cc2)CC1 (stereo not drawn) [HYDROXYZINE HYDROCHLORIDE]
8

What would you report for COc1cc2nc(N3CCN(C(=O)c4ccco4)CC3)nc(N)c2cc1OC.Cl [PRAZOSIN HYDROCHLORIDE] ?
11

Try CN1CCC(C(=O)c2cccc(NC(=O)c3c(F)cc(F)cc3F)n2)CC1 next.
8

Now try Cc1cc(-c2ccc3c(c2)CC[C@H]3N2CC3(CCN(C(=O)Cc4cn5cc(C)sc5n4)CC3)C2)ncn1 .
5

What would you report for COc1cc(OC2CCN(C(C)=O)CC2)ccc1C(=O)N1CCC(N2C(=O)OCc3ccccc32)CC1 ?
7

Then COCCn1c(C)c(C)s/c1=N\C(=O)C1C(C)(C)C1(C)C ?
11

Record: COc1cc2nc(N3CCN(C(=O)COc4c(OC)cccc4C(C)C)CC3)nc(N)c2cc1OC.Cl.Cl
13

Another compound: COc1cc(Nc2ncc3c(n2)-c2ccc(Cl)cc2C(c2c(F)cccc2OC)=NC3)ccc1C(=O)O
12

Then what about the compound COc1cc(C(=O)N2CC[C@@H](O)[C@@H](N)C2)cc2nc(-c3cc4ccccc4n3CC3CC3)n(C)c12.Cl ?
6

Cool, now CCn1c(-c2nc3cc(C(=O)N4CCCC(N)C4)ccc3n2C)cc2ccccc21.Cl (stereo not drawn)
8

* * *

- Tested on: HEK-293T
- Experiment Summary: Multiplex assay against HEK293T
- Format: toxicity, cell-based
- Condition Notes: human, 48 h, 1 µM, compound concentration 1 uM, replicate 1
Reported Property: Population Apoptotic (%)
Write the answer as a number in %, unit excluded.

Which Population Apoptotic (%) is listed for O=C(Nc1cc(-c2ccccc2)nn1-c1ccccc1F)c1ccc([N+](=O)[O-])cc1 ?
17

Then Cc1ccc(OCC(O)C(C)NC(C)C)c2c1CCC2.Cl (stereo not given) ?
24

// query: Cc1cc(O)c(-c2ccc([C@@H](C)CN(C)C)cc2)c2c1[nH]c(=O)c1sccc12
86

Likewise for Cc1cc(NC(=O)NCCN2CCC(O)(Cc3ccccc3)CC2)c2ccccc2n1 [PALOSURAN] ?
19

Can you check N[C@](CC1c2ccccc2Oc2ccccc21)(C(=O)O)[C@H]1C[C@@H]1C(=O)O next?
12

* * *

- Tested on: HEK-293T
- Experiment Summary: Multiplex assay against HEK293T
- Format: toxicity, cell-based
- Condition Notes: human, 48 h, 1 µM, compound concentration 1 uM, replicate 2
For each of the compounds below, state its Population Apoptotic (%).
Your answer is read as %, so omit the unit and give the number.

What value of measured Population Apoptotic (%) is listed for C[C@@H]1CC(=O)Nc2cccc(-c3ccc4c(c3)c(-c3cnn(C)c3)nn4C)c2N1 ?
30

Moving on to the next compound: COc1cc(C(=O)N2CC[C@@H](O)[C@@H](N)C2)cc2nc(-c3cc4ccccc4n3CC3CC3)n(C)c12.Cl
64

Same again, this time with N[C@](CC1c2ccccc2Oc2ccccc21)(C(=O)O)[C@H]1C[C@@H]1C(=O)O
17

Follow-up entry: CCn1c(-c2nc3cc(C(=O)N4CCCC(N)C4)ccc3n2C)cc2ccccc21.Cl (stereo not drawn)
14

And for COc1ccc2c(c1OCc1ccccc1)C[C@@H](C(=O)O)N(C(=O)C(c1ccccc1)c1ccccc1)C2 ?
22

Ok, now CN1C[C@H](C(=O)N[C@]2(C)O[C@@]3(O)[C@@H]4CCCN4C(=O)[C@H](Cc4ccccc4)N3C2=O)C[C@@H]2c3cccc4[nH]cc(c34)C[C@H]21.CS(=O)(=O)O [DIHYDROERGOTAMINE MESYLATE]
28

Let us now turn to CN1CCN(c2ccc(Nc3c4ccccc4nc4ccccc34)cc2)CC1.Cl.Cl.O
60

Field entry: S=C(NCCCc1c[nH]cn1)NCCCN(Cc1ccc(Cl)c(Cl)c1)c1ccc(Br)cn1
36

Another compound to check: Cc1sc2c(c1C)C(c1ccc(Cl)cc1)=N[C@H](CC(=O)OC(C)(C)C)c1nnc(C)n1-2
30

Another: O=c1ccc2ccc(OCCCCN3CCN(c4cccc5sccc45)CC3)cc2[nH]1
48

Input Cc1nn(C)c2nc(NNC(=O)Nc3cc(Cl)nc(Cl)c3)cc(C(C)C)c12
18

Another: Cc1ccc(OCC(O)C(C)NC(C)C)c2c1CCC2.Cl (stereo not drawn)
26

Okay, and COCCn1c(C)c(C)s/c1=N\C(=O)C1C(C)(C)C1(C)C ?
45

// query: O=C(Nc1cc(-c2ccccc2)nn1-c1ccccc1F)c1ccc([N+](=O)[O-])cc1
33

One more compound: Cc1cc(-c2ccc3c(c2)CC[C@H]3N2CC3(CCN(C(=O)Cc4cn5cc(C)sc5n4)CC3)C2)ncn1
39

Please do the same for CC(F)(F)CN1CCOc2c(nn(-c3ccccc3Cl)c2-c2ccc(Cl)cc2)C1=O as well.
25

Next record, please: Cn1cc(C(=O)OCC2CCN(CCNS(C)(=O)=O)CC2)c2ccccc21
44

Param item: CCc1nn2c(C)cc(C)nc2c1Cc1ccc(-c2nnc(C3CCNCC3)o2)cc1
32
